- CONDITION: human gut metagenome, 24 h, 2 µM; note: call rule not given here

COMPOUND	Bacterial Biotransformation
CC(C)(C)NC[C@H](O)COc1ccccc1C1CCCC1.CC(C)(C)NC[C@H](O)COc1ccccc1C1CCCC1.O=S(=O)(O)O [PENBUTOLOL SULFATE]	Compound metabolized
CCCC(=O)Nc1ccc(OCC(O)CNC(C)C)c(C(C)=O)c1 (stereo not drawn) [ACEBUTOLOL]	Compound metabolized

###

- PROCEDURE SUMMARY: The drug is tested on Z-027 corresponding to metagenome with ENA study accession number: PRJEB37062 and ENA sample accession number: ERS12561826 for biotransformation under anaerobic condition. The drug concentrations were measured over 9 timepoints collected between 0 and 24 hours of incubation by liquid-chromatography-coupled mass spectrometry (LC–MS)
- CONDITION: 2 µM
Where a SMILES comes first, the peptide text is derived from it. [ ]: non-standard residue; d: D form. pGlu = O=C1CC[C@@H](C(=O)O)N1; Thz = O=C(O)[C@@H]1CSCN1
MEASUREMENT NAME: Bacterial Biotransformation

Example entries begin here.
COMPOUND	Bacterial Biotransformation
CN(C)CCC=C1c2ccccc2C=Cc2ccccc21 [CYCLOBENZAPRINE]	Compound NOT metabolized
CC(C)NCC(O)COc1ccc(CCOCC2CC2)cc1 (configuration not stated) [BETAXOLOL]	Compound NOT metabolized
CC[C@H](C)C(=O)O[C@H]1C[C@@H](C)C=C2C=C[C@H](C)[C@H](CC[C@@H]3C[C@@H](O)CC(=O)O3)[C@H]21 [LOVASTATIN]	Compound NOT metabolized
CC(O)(CS(=O)(=O)c1ccc(F)cc1)C(=O)Nc1ccc(C#N)c(C(F)(F)F)c1 (configuration not stated) [BICALUTAMIDE]	Compound NOT metabolized
CC(C)c1c(C(=O)Nc2ccccc2)c(-c2ccccc2)c(-c2ccc(F)cc2)n1CC[C@@H](O)C[C@@H](O)CC(=O)O [ATORVASTATIN]	Compound NOT metabolized

Looking for the measured Bacterial Biotransformation of O=C1CC[C@@H](C(=O)N2CSC[C@H]2C(=O)O)N1 [PIDOTIMOD] ([pGlu]-[Thz]-OH) , can you help? Compound NOT metabolized

Looking for the measured Bacterial Biotransformation of COCCc1ccc(OCC(O)CNC(C)C)cc1.COCCc1ccc(OCC(O)CNC(C)C)cc1.O=C(O)C(O)C(O)C(=O)O (configuration not stated) [METOPROLOL TARTRATE] , can you help? Compound NOT metabolized

Looking for the measured Bacterial Biotransformation of CN1CCC(=C2c3ccccc3CCc3cccnc32)CC1.O=C(O)/C=C\C(=O)O.O=C(O)/C=C\C(=O)O [AZATADINE MALEATE] , can you help? Compound NOT metabolized

Looking for the measured Bacterial Biotransformation of CNCCC(Oc1ccc(C(F)(F)F)cc1)c1ccccc1 (configuration not stated) [FLUOXETINE] , can you help? Compound NOT metabolized

Looking for the measured Bacterial Biotransformation of Cc1ccc(S(=O)(=O)NC(=O)NN2CC3CCCC3C2)cc1 (configuration not stated) [GLICLAZIDE] , can you help? Compound metabolized

Looking for the measured Bacterial Biotransformation of OC(CCN1CCCCC1)(c1ccccc1)C1CCCCC1 (configuration not stated) [TRIHEXYPHENIDYL] , can you help? Compound NOT metabolized

Looking for the measured Bacterial Biotransformation of C#C[C@]1(O)CC[C@H]2[C@@H]3CCC4=CC(=O)CC[C@@H]4[C@H]3CC[C@@]21CC [LEVONORGESTREL] , can you help? Compound metabolized
